Assay: Plasma unbound fraction
Format: in vitro ADME
Conditions: observed, read-out: fu,pl (plasma unbound fraction)
REPORTED_ENDPOINT: fraction unbound
I only need the number, thanks.

Query: Please list fraction unbound recorded for the molecule O=S(=O)(NC1CCC(c2cc(F)ccc2F)(S(=O)(=O)c2ccc(Cl)cc2)CC1)C(F)(F)F (stereo not shown) [MRK-560]
Result: 0.004

---

Tested on: soluble Aβ40 production
Test: PKPD turnover model of MRK-560 inhibition of soluble Aβ40 production (models A, B, C)
Type: in vivo, Tg2576 transgenic mice
Settings: Mus musculus, model C; 25-month-old Tg2576 mice; brain concentration
Protocol: In a second step, drug effect data were added to the AP analysis in order to develop an integrated PKPD model that incorporated both age-dependent AP and an age-dependent drug effect. […] All modeling analyses were performed in NONMEM (version 7.1.0, ICON Development Solutions, Ellicott City, MD [Schoemaker and Cohen [1996]]). […] The 90% prediction intervals were calculated using the visual predictive check (VPC) as described by (Post et al. [2008]). […]
REPORTED_ENDPOINT: IC50

Query: Give recorded IC50. O=S(=O)(NC1CCC(c2cc(F)ccc2F)(S(=O)(=O)c2ccc(Cl)cc2)CC1)C(F)(F)F (stereo not shown)
Result: 12 µM

---

Assay: Fraction unbound in brain, rat brain slice uptake method
Type: in vitro ADME, Sprague-Dawley rats
Details: male, Sprague-Dawley, brain slices (coronal slices of striatal areas, 300 μm), observed, 1 μmol/L compound, 37°C, read-out: fu,br (brain unbound fraction)
REPORTED_ENDPOINT: fraction unbound at 5 h, 1 μmol/L
Keep it simple and answer with nothing but the number.

Query: For the compound O=S(=O)(NC1CCC(c2cc(F)ccc2F)(S(=O)(=O)c2ccc(Cl)cc2)CC1)C(F)(F)F (stereo not shown) , report fraction unbound at 5 h, 1 μmol/L.
Result: 0.0067

---

Experiment: Population pharmacokinetic modeling of MRK-560 plasma and brain exposure in mice
Assay type: in vivo, C57BL/6, Tg2576 and Tg2576 wild-type littermate mice
Settings: female, C57BL/6, Tg2576, Tg2576 wild-type littermates, mouse, plasma; two-compartmental model
REPORTED_ENDPOINT: clearance (mL/min/kg)
Field format: number, assumed mL/min/kg, no unit text.

Query: Provide one value: measured clearance of O=S(=O)(NC1CCC(c2cc(F)ccc2F)(S(=O)(=O)c2ccc(Cl)cc2)CC1)C(F)(F)F (stereo not shown)
Result: 2

---

Assay: Population pharmacokinetic modeling of MRK-560 plasma and brain exposure in mice
Assay type: in vivo, C57BL/6, Tg2576 and Tg2576 wild-type littermate mice
Details: female, C57BL/6, Tg2576, Tg2576 wild-type littermates, mouse, brain, estimated total brain:plasma ratio; constant over 0.01-15 μmol/L
REPORTED_ENDPOINT: Kp
Give the figure by itself; no unit, no explanation.

Query: Input O=S(=O)(NC1CCC(c2cc(F)ccc2F)(S(=O)(=O)c2ccc(Cl)cc2)CC1)C(F)(F)F (stereo not shown) , output reported Kp.
Result: 0.3
